system: 377384-186-R-J1-PDC complex spheroid viability; test: Anticancer human tumor 377384-186-R-J1-PDC patient-derived pancreatic carcinoma cell line growth inhibition [RAS]; conditions: second compound 0.0316 µM; first compound 0.1 µM; active compounds read low;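 further: spheroids exposed to compounds for seven days before readout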
viability, T/C strictly less than 30% = Condition met. Otherwise Condition not met.

Consider the worked cases shown below.
[
  {
    "Molecule": "C[C@@H](NC(=O)c1ncnc(N)c1Cl)c1ncc(C(=O)Nc2cc(C(F)(F)F)c(Cl)cn2)s1 + C#Cc1c(F)ccc2cc(O)cc(-c3ncc4c(N5CC6CCC(C5)N6)nc(OCC56CCCN5CC(F)C6)nc4c3F)c12",
    "Classification": "Condition met"
  },
  {
    "Molecule": "CCN1CCN(Cc2ccc(Nc3ncc(F)c(-c4cc(F)c5nc(C)n(C(C)C)c5c4)n3)nc2)CC1 + C#Cc1c(F)ccc2cc(O)cc(-c3ncc4c(N5CC6CCC(C5)N6)nc(OCC56CCCN5CC(F)C6)nc4c3F)c12",
    "Classification": "Condition met"
  },
  {
    "Molecule": "CC(C)n1nc(-c2ccc3oc(N)nc3c2)c2c(N)ncnc21 + C#Cc1c(F)ccc2cc(O)cc(-c3ncc4c(N5CC6CCC(C5)N6)nc(OCC56CCCN5CC(F)C6)nc4c3F)c12",
    "Classification": "Condition met"
  },
  {
    "Molecule": "CC(Nc1ccc2c(c1)OCCn1cc(N3C(=O)OCC3C(F)F)nc1-2)C(N)=O (stereo not given) + C=CC(=O)N1CCN(c2nc(OCC3CCCN3C)nc3c(F)c(-c4nc(N)cc(C)c4C(F)(F)F)c(Cl)cc23)C(C)C1",
    "Classification": "Condition not met"
  }
]

Challenge: Lab log: compare recorded viability, T/C with 30%; is it strictly lower for CC(=O)OC12COC1CC(O)C1(C)C(=O)C(O)C3=C(C)C(OC(=O)C(O)C(NC(=O)OC(C)(C)C)c4ccccc4)CC(O)(C(OC(=O)c4ccccc4)C21)C3(C)C (stereo not given) + C#Cc1c(F)ccc2cc(O)cc(-c3ncc4c(N5CC6CCC(C5)N6)nc(OCC56CCCN5CC(F)C6)nc4c3F)c12 ?
Response given: Condition met

Challenge: Is viability, T/C strictly under 30% for the entry CC(C)NCC(C(=O)N1CCN(c2ncnc3c2C(C)CC3O)CC1)c1ccc(Cl)cc1 (stereo not given) + C=CC(=O)N1CCN(c2nc(OCC3CCCN3C)nc3c(F)c(-c4nc(N)cc(C)c4C(F)(F)F)c(Cl)cc23)C(C)C1 ?
Response given: Condition not met

Challenge: Quick check: does C=CC(=O)Nc1cc(Nc2nccc(-c3cn(C)c4ccccc34)n2)c(OC)cc1N(C)CCN(C)C + C#Cc1c(F)ccc2cc(O)cc(-c3ncc4c(N5CC6CCC(C5)N6)nc(OCC56CCCN5CC(F)C6)nc4c3F)c12 have viability, T/C under 30%?
Response given: Condition met

Challenge: # TODO verify viability, T/C < 30% strictly for this molecule: O=C(c1ccc(F)c(F)c1Nc1ccc(I)cc1F)N1CC(O)([C@@H]2CCCCN2)C1 + C#Cc1c(F)ccc2cc(O)cc(-c3ncc4c(N5CC6CCC(C5)N6)nc(OCC56CCCN5CC(F)C6)nc4c3F)c12
Response given: Condition met

Challenge: Report whether reported viability, T/C is lower than 30% (strictly) for NC1c2ccccc2OC12CCN(c1cnc3c(N4CCCc5ncccc54)n[nH]c3n1)CC2 (stereo not given) + C=CC(=O)N1CCN(c2nc(OCC3CCCN3C)nc3c(F)c(-c4nc(N)cc(C)c4C(F)(F)F)c(Cl)cc23)C(C)C1
Response given: Condition not met

Challenge: Hi there! Is viability, T/C for CC(C)n1nc(-c2ccc3oc(N)nc3c2)c2c(N)ncnc21 + C=CC(=O)N1CCN(c2nc(OCC3CCCN3C)nc3c(F)c(-c4nc(N)cc(C)c4C(F)(F)F)c(Cl)cc23)C(C)C1 below 30%, do you know?
Response given: Condition met
